pKi: −log10 of the molar value.
Assay read-out pKi on Vascular endothelial growth factor receptor 2 (Homo sapiens, UniProt P35968); records merged from the literature.
Sequence (P35968 whole entry): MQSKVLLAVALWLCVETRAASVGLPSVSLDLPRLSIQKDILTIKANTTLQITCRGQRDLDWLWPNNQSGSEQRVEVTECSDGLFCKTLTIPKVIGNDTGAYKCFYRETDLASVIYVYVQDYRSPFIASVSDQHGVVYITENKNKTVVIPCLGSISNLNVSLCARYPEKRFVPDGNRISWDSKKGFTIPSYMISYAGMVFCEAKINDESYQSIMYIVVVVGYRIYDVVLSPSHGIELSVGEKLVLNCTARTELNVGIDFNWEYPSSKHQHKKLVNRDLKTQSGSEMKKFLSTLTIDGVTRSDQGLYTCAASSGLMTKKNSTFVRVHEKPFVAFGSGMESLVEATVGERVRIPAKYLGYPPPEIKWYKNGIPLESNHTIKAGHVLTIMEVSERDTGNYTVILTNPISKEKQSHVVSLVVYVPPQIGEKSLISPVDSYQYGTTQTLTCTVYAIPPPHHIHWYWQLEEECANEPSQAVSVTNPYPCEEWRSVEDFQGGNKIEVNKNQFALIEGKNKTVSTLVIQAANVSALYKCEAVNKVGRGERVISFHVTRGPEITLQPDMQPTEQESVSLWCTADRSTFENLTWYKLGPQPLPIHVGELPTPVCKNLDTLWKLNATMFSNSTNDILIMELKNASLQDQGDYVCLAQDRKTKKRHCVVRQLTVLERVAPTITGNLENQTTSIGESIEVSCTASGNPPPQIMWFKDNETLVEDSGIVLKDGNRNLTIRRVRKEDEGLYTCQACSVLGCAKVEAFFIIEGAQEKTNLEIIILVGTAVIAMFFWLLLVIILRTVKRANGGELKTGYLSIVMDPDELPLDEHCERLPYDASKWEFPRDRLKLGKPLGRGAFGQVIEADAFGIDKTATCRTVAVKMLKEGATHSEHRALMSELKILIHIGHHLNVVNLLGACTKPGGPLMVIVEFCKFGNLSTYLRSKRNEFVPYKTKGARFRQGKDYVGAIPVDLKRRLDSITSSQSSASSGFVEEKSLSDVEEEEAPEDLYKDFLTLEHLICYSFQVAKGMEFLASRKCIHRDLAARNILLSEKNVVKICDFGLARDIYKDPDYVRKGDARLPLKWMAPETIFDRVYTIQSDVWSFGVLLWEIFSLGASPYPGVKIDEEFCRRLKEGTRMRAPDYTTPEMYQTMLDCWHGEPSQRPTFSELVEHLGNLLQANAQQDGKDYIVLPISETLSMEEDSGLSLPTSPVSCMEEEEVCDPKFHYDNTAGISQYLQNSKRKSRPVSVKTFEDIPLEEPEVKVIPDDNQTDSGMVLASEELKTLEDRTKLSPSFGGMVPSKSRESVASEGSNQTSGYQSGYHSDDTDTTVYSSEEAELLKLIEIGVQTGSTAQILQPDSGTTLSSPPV
Quantity Name: pKi

>>> measured("COc1ccc2c(Oc3ccc(NC(=O)c4c(-c5cccnc5)n(C)n(-c5ccccc5)c4=O)nc3)ccnc2c1")
5.55
>>> measured("COc1cc2ncc(C#N)c(N[C@@H]3C[C@H]3c3ccccc3)c2cc1OC")
5.68
>>> measured("COc1cc2nccc(Oc3ccc(-c4cnc(Nc5ccc(F)cc5)n(C)c4=O)cc3F)c2cc1OC")
6.42
>>> measured("Clc1cccc(Cn2cc(-c3ccc4[nH]ncc4c3)nn2)c1")
4.88
>>> measured("COc1ccc2c(Oc3ccc(NC(=O)c4c(-c5ccccn5)n(C)n(-c5ccccc5)c4=O)nc3)ccnc2c1")
5.86
